- Experimental system: T1, Clostridium difficile toxin A, soluble full-length (TechLab) (Clostridium difficile, UniProt P16154 1-2710)
- T1 construct: also called tcdA
- Test name: SPR Biacore T200, 37C, mAb capture
Measurement kind: koff (s⁻¹)
State the answer as a number, implicitly in s⁻¹.

Worked set:
Per the records, this binder ( H1H3328P (antibody, V domains shown) VH: EVQLVESGGGLVQPGGSLTLSCAASRFTFSNYDMHWVRQATGKGLEWVSAIGTVGDTYYAGSVKGRFTISRDDAKNSLYLQMNSLRAGDTAVYYCARDRGGAGTYSFYYGMDVWGQGTTVTVSS VL: DIQMTQSPSSLSASVGDRVTITCRASQDISNYLAWYQQKPGKVPKLLIYAASTLQSGVPSRFSGSGSGTDFTLTVSSLQPEDVATYYCQKYTSAPFTFGPGTKVDIKR ) has koff equal to 3.66e-05

So for H1H3324P (antibody, V domains shown) VH: EVQLVESGGGLVQPGGSLRLSCAASGFTFSSYDMHWVRQVIGKGLEWVSAIGTVGDTYYAGSVKGRFTISRENAKNSLYLQMNSLRAGDTAVYYCARDRGGANIYSFYYGMDVWGQGTTVTVSS VL: DIQMTQSPSSLSVSVGDRVTITCRASQDISNYLAWYQQKPGKVPKLLIYAASTLQSGVPSRFSGSGSGTDFTLTISSLQPEDVATYFCQKYNSAPFTFGPGTKVDIKR , the logged koff turned out to be 3.5e-06

Shifting focus to the binder that follows.
Lab book: koff of H1H3350P (antibody, V domains shown) VH: QVQLVESGGGLVKPGGSLTLSCVASGFTFTDYYISWIRQAPGKGLEWISYIGTGGAAKYYADSVKGRFTVSRDNAKNSLYLLMNNLRAEDTAVYYCARDLGIFDLWGQGTLVTVSS VL: EIVMTQSPATLSVSPGERATLSCRASQSVSSSLAWYHQKPGQAPRLLIHGVSTRATGIPARFSGTGSGTEFTLTISSLQSEDFAVYYCQQYHNWPPYTFGQGTKLEIKR noted as 4.05e-06
